# measurement.conditions: size below which 90% of the particles by volume are found; sunflower oil dispersant
Counter-ions that a name gives are not always drawn.
Kindly state Particle size (D90) for each of the entries shown.
Answers are plain numbers, in microns.

compound	result
C#CCN[C@@H]1CCc2ccccc21 [Example 1, rasagiline mesylate]	1407

What value of measured Particle size (D90) is listed for C#CCN[C@@H]1CCc2ccccc21 [Example 2, rasagiline mesylate] ?
1496
